The following compounds are shown together with reported Avg. POC values.
- Tested system: HIPK3 (Homo sapiens (Human), UniProt Q9H422)
- Test method notes: KinaseProfiler off-target kinase profiling
- Type: biochemical
- Condition notes: 10 μM, ATP near Km
Quick note: give the figure in POC, leave out the unit.

Sample answers from the record:
Cc1c(-c2ccc(=O)n(C)c2)nn(-c2ccccc2)c1NC(=O)NC1CN(CC(F)(F)F)Cc2ccccc21 (stereo not shown) ... 111
Cc1c(-c2cnn(C)c2)nn(-c2ccccc2)c1NC(=O)NC1CCOc2cc(F)ccc21 (stereo not shown) ... 102.5
Cc1c(-c2cnn(C)c2)nn(-c2ccccc2)c1NC(=O)N[C@H]1CCCc2ccccc21 ... 119.5

Would you kindly look at the next entry?
Query string: Give the reported Avg. POC for COCc1ccc2c(c1)C(NC(=O)Nc1c(C)c(-c3cnn(C)c3)nn1-c1ccccc1)COC2 (stereo not shown) (system: HIPK3 (Homo sapiens (Human), UniProt Q9H422)).
Result string: 107

---

- Tested system: TAO1 (Homo sapiens (Human), UniProt Q7L7X3)
- Sequence (Q7L7X3 whole entry): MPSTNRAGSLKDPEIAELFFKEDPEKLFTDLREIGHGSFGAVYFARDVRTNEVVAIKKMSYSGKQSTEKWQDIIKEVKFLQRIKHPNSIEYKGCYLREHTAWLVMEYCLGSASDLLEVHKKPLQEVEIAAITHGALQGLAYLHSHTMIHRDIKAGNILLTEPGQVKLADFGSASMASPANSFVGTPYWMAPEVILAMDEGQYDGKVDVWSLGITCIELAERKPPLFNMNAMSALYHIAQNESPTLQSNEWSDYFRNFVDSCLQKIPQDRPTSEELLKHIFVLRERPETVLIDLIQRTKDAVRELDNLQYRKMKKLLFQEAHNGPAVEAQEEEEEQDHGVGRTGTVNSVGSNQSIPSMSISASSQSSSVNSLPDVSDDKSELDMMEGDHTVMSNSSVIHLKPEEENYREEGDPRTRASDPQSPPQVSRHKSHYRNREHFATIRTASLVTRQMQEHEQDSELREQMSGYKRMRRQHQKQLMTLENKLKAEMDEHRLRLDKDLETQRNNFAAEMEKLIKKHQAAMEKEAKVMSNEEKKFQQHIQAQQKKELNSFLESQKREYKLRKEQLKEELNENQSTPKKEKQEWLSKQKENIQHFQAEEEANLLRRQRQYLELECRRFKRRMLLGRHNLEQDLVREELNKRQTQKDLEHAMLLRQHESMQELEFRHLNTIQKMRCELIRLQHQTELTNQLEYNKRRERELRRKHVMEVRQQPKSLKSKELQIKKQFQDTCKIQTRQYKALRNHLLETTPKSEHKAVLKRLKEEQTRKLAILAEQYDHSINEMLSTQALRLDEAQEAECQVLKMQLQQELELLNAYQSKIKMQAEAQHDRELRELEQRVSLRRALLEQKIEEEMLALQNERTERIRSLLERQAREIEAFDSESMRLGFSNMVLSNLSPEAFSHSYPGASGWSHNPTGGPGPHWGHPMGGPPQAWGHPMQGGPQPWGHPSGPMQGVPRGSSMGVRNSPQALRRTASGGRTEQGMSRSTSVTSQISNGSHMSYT
- Test method notes: KinaseProfiler off-target kinase profiling
- Format: biochemical
- Condition notes: 10 μM, ATP near Km
Entries annotated with measured Avg. POC
Numeric answer only, unit POC assumed.

These recorded examples may help you get a feel for the data.
Cc1c(-c2cnn(C)c2)nn(-c2ccccc2)c1NC(=O)N[C@H]1CCCc2ccccc21 ... 110.5
Cc1c(-c2ccc(=O)n(C)c2)nn(-c2ccccc2)c1NC(=O)NC1CN(CC(F)(F)F)Cc2ccccc21 (stereo not shown) ... 105.5
COCc1ccc2c(c1)C(NC(=O)Nc1c(C)c(-c3cnn(C)c3)nn1-c1ccccc1)COC2 (stereo not shown) ... 100

Query string: API: value(readout=Avg. POC, system=TAO1 (Homo sapiens (Human), UniProt Q7L7X3)) for record Cc1c(-c2cnn(C)c2)nn(-c2ccccc2)c1NC(=O)NC1CCOc2cc(F)ccc21 (stereo not shown)
Result string: 104

---

- Tested system: p38alpha (Homo sapiens (Human))
- Sequence (Q16539 whole entry): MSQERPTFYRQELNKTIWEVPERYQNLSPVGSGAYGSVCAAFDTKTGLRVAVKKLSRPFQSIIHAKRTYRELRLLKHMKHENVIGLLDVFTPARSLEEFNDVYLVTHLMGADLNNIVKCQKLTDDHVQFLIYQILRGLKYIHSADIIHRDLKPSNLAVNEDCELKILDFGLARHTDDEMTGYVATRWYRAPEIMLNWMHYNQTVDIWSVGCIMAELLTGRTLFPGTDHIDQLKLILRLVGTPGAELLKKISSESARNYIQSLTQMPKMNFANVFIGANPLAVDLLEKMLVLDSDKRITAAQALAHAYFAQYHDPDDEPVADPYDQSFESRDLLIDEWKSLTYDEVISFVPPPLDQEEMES
- Test method notes: KinaseProfiler off-target kinase profiling
- Format: biochemical
- Condition notes: 10 μM, ATP near Km
# Lookup of reported Avg. POC keyed by entry
Hi! Could you send only the number? It should be in POC, unit omitted.

Cc1c(-c2cnn(C)c2)nn(-c2ccccc2)c1NC(=O)N[C@H]1CCCc2ccccc21 [Example 2] ... 102.5
Cc1c(-c2ccc(=O)n(C)c2)nn(-c2ccccc2)c1NC(=O)NC1CN(CC(F)(F)F)Cc2ccccc21 (stereo not shown) [Example 26] ... 104.5
Cc1c(-c2cnn(C)c2)nn(-c2ccccc2)c1NC(=O)NC1CCOc2cc(F)ccc21 (stereo not shown) [Example 12] ... 110

Query string: Query: Avg. POC; subject: COCc1ccc2c(c1)C(NC(=O)Nc1c(C)c(-c3cnn(C)c3)nn1-c1ccccc1)COC2 (stereo not shown) [Example 32]
Result string: 96.5

---

- Tested system: UniProtKB P42681
- Sequence (P42681 whole entry): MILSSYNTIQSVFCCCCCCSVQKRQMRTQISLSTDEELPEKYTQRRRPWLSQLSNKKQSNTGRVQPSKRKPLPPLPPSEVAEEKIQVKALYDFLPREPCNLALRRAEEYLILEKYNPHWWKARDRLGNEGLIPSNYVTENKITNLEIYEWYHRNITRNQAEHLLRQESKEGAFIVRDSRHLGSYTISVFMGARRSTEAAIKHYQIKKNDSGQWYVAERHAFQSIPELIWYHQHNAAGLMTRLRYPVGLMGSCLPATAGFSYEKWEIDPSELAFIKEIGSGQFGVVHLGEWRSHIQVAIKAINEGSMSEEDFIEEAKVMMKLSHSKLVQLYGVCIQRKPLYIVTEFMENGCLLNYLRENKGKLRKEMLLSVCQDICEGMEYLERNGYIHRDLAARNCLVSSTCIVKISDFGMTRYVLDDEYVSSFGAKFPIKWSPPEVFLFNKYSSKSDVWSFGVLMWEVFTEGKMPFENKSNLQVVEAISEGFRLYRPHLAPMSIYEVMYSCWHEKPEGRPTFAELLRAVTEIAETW
- Test method notes: KinaseProfiler off-target kinase profiling
- Format: biochemical
- Condition notes: 10 μM, ATP near Km
- Procedure: Representative compounds (Examples 12, 32, 26 and 2) of the invention were tested for off-target kinase activity at a concentration of 10 μM by Millipore, Inc. in their KinaseProfiler™ service against all the kinases available in their full kinase panel. Compounds were run in duplicate at a concentration of ATP near the Km for each individual kinase according to Millipore's specifications. […]
Metric: Avg. POC (POC)
Quick reminder: number only, in POC, skip the unit.

COCc1ccc2c(c1)C(NC(=O)Nc1c(C)c(-c3cnn(C)c3)nn1-c1ccccc1)COC2 (stereo not shown) ... 127
Cc1c(-c2cnn(C)c2)nn(-c2ccccc2)c1NC(=O)NC1CCOc2cc(F)ccc21 (stereo not shown) ... 139
Cc1c(-c2cnn(C)c2)nn(-c2ccccc2)c1NC(=O)N[C@H]1CCCc2ccccc21 ... 125

Now look at this entry.
Query string: Which Avg. POC is listed for Cc1c(-c2ccc(=O)n(C)c2)nn(-c2ccccc2)c1NC(=O)NC1CN(CC(F)(F)F)Cc2ccccc21 (stereo not shown) ?
Result string: 119

---

- Tested system: JNK1alpha1 (Homo sapiens (Human))
- Sequence (P45983 other isoform, or with tags, fused parts or gaps): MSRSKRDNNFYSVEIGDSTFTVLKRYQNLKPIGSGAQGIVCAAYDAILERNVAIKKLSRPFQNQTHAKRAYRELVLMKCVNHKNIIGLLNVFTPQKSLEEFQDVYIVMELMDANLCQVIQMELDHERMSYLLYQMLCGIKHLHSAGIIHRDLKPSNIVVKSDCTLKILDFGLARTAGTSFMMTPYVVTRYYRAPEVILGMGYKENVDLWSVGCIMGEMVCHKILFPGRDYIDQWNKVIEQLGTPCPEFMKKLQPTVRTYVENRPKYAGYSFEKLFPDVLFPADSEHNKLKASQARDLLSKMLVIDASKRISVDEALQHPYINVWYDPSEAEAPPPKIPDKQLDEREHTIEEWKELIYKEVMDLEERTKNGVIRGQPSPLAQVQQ
- Test method notes: KinaseProfiler off-target kinase profiling
- Type: biochemical
- Condition notes: 10 μM, ATP near Km
Metric: Avg. POC (POC)
Note: unit POC is implicit; provide only the numeric part.

Examples with their reported Avg. POC follow.
Cc1c(-c2cnn(C)c2)nn(-c2ccccc2)c1NC(=O)NC1CCOc2cc(F)ccc21 (stereo not shown) [Example 12] ... 109.5
Cc1c(-c2cnn(C)c2)nn(-c2ccccc2)c1NC(=O)N[C@H]1CCCc2ccccc21 [Example 2] ... 94
COCc1ccc2c(c1)C(NC(=O)Nc1c(C)c(-c3cnn(C)c3)nn1-c1ccccc1)COC2 (stereo not shown) [Example 32] ... 118

Query string: Report Avg. POC for Cc1c(-c2ccc(=O)n(C)c2)nn(-c2ccccc2)c1NC(=O)NC1CN(CC(F)(F)F)Cc2ccccc21 (stereo not shown) [Example 26] please.
Result string: 112

---

Attribute: Avg. POC
- Tested system: PKCalpha (Homo sapiens (Human), UniProt P17252)
- Test method notes: KinaseProfiler off-target kinase profiling
- Format: biochemical
- Condition notes: 10 μM, ATP near Km
Express your answer in POC, writing the number without its unit.

Worked cases, Avg. POC given:
Cc1c(-c2ccc(=O)n(C)c2)nn(-c2ccccc2)c1NC(=O)NC1CN(CC(F)(F)F)Cc2ccccc21 (stereo not shown) ... 107.5
COCc1ccc2c(c1)C(NC(=O)Nc1c(C)c(-c3cnn(C)c3)nn1-c1ccccc1)COC2 (stereo not shown) ... 110
Cc1c(-c2cnn(C)c2)nn(-c2ccccc2)c1NC(=O)NC1CCOc2cc(F)ccc21 (stereo not shown) ... 104

Next, consider the following compound.
Query string: Reported Avg. POC for Cc1c(-c2cnn(C)c2)nn(-c2ccccc2)c1NC(=O)N[C@H]1CCCc2ccccc21 : what is it?
Result string: 96

---

- Tested system: MEK1 (Homo sapiens (Human), UniProt Q02750)
- Sequence (Q02750 whole entry): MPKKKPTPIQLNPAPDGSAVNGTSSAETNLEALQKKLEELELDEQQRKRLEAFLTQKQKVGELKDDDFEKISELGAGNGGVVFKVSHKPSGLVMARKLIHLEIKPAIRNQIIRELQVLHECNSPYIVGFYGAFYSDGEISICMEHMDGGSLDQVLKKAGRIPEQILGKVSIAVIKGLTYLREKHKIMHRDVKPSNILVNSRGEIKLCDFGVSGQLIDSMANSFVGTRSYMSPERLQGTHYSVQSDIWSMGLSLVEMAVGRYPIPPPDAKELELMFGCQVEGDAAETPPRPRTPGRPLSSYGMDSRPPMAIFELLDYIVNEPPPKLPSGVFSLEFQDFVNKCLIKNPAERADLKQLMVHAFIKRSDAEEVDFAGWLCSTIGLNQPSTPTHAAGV
- Test method notes: KinaseProfiler off-target kinase profiling
- Type: biochemical
- Condition notes: 10 μM, ATP near Km
- Experimental: Representative compounds (Examples 12, 32, 26 and 2) of the invention were tested for off-target kinase activity at a concentration of 10 μM by Millipore, Inc. in their KinaseProfiler™ service against all the kinases available in their full kinase panel. Compounds were run in duplicate at a concentration of ATP near the Km for each individual kinase according to Millipore's specifications. […]
Metric: Avg. POC (POC)
# output: bare number, implied unit POC

Cc1c(-c2cnn(C)c2)nn(-c2ccccc2)c1NC(=O)NC1CCOc2cc(F)ccc21 (stereo not shown) ... 106.5
Cc1c(-c2ccc(=O)n(C)c2)nn(-c2ccccc2)c1NC(=O)NC1CN(CC(F)(F)F)Cc2ccccc21 (stereo not shown) ... 97
COCc1ccc2c(c1)C(NC(=O)Nc1c(C)c(-c3cnn(C)c3)nn1-c1ccccc1)COC2 (stereo not shown) ... 102

Attention now turns to another entry.
Query string: Reported Avg. POC for Cc1c(-c2cnn(C)c2)nn(-c2ccccc2)c1NC(=O)N[C@H]1CCCc2ccccc21 : what is it?
Result string: 100.5

---

Documented Avg. POC across a set of molecules
- Tested system: NEK3 (Homo sapiens (Human), UniProt P51956)
- Sequence (P51956 whole entry): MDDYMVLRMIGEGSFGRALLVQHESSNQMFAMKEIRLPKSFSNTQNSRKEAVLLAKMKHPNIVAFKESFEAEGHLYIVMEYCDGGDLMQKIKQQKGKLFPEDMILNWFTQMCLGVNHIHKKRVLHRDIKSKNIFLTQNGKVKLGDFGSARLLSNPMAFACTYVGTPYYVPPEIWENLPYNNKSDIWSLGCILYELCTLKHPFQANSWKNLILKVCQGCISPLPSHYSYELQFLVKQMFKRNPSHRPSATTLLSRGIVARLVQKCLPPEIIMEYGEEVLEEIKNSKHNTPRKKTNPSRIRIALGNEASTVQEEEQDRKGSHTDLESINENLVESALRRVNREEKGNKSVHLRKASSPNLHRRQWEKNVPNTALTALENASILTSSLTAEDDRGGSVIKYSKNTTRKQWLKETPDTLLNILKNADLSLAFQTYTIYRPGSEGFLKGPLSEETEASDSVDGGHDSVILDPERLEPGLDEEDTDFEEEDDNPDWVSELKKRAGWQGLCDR
- Test method notes: KinaseProfiler off-target kinase profiling
- Assay type: biochemical
- Condition notes: 10 μM, ATP near Km
Write the number in POC without appending the unit.

Query string: Which Avg. POC reading was recorded for the molecule Cc1c(-c2cnn(C)c2)nn(-c2ccccc2)c1NC(=O)N[C@H]1CCCc2ccccc21 ?
Result string: 105

Query string: Input Cc1c(-c2cnn(C)c2)nn(-c2ccccc2)c1NC(=O)NC1CCOc2cc(F)ccc21 (stereo not shown)
Result string: 102

Query string: Request: Cc1c(-c2ccc(=O)n(C)c2)nn(-c2ccccc2)c1NC(=O)NC1CN(CC(F)(F)F)Cc2ccccc21 (stereo not shown)
Result string: 105

Query string: What would you report for COCc1ccc2c(c1)C(NC(=O)Nc1c(C)c(-c3cnn(C)c3)nn1-c1ccccc1)COC2 (stereo not shown) ?
Result string: 113

---

- Tested system: IRAK1 (Homo sapiens (Human), UniProt P51617)
- Sequence (P51617 whole entry): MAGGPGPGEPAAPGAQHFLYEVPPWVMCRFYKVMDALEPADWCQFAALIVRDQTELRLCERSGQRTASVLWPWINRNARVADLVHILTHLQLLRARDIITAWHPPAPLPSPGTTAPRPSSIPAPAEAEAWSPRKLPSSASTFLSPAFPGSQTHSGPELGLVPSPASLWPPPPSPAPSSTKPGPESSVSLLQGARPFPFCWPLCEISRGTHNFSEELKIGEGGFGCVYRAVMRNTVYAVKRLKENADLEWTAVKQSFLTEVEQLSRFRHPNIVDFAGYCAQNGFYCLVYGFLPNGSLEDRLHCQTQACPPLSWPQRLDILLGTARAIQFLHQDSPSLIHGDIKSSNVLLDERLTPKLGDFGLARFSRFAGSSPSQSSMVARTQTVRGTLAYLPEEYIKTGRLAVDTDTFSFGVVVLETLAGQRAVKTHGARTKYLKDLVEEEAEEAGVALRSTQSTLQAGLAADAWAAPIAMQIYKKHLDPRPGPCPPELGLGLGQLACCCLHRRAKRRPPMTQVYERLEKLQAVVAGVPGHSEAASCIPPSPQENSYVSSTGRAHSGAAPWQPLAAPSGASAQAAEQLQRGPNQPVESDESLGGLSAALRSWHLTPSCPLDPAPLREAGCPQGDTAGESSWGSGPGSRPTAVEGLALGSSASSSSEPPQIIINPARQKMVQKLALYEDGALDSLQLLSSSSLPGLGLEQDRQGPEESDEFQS
- Test method notes: KinaseProfiler off-target kinase profiling
- Type: biochemical
- Condition notes: 10 μM, ATP near Km
Quick list: Avg. POC per entry.
# do not omit the unit; it follows the number

Would you please look over these solved cases?
Cc1c(-c2cnn(C)c2)nn(-c2ccccc2)c1NC(=O)N[C@H]1CCCc2ccccc21 ... 107 POC
Cc1c(-c2ccc(=O)n(C)c2)nn(-c2ccccc2)c1NC(=O)NC1CN(CC(F)(F)F)Cc2ccccc21 (stereo not shown) ... 110.5 POC
COCc1ccc2c(c1)C(NC(=O)Nc1c(C)c(-c3cnn(C)c3)nn1-c1ccccc1)COC2 (stereo not shown) ... 113.5 POC

// next item, Avg. POC requested
Query string: Under IRAK1 (Homo sapiens (Human), UniProt P51617): Avg. POC value of Cc1c(-c2cnn(C)c2)nn(-c2ccccc2)c1NC(=O)NC1CCOc2cc(F)ccc21 (stereo not shown) ?
Result string: 102.5 POC

Data origin, for the record: patent US10351575B2
